test system: Coptotermes formosanus Shiraki; assay: Test Example 1: termite-killing test on treated filter paper; assay type: in vivo; details: mortality class; 1 ml of a 500 ppm solution on filter paper, seven days after inoculation, triplicate group of 10 insects
measuredMetric: Termite-killing effect

Example results:
N#Cc1ccc(CC(=NNC(=O)Nc2ccc(OC(F)(F)F)cc2)c2cccc(Br)c2)cc1 :: A (100)
CCNC(=O)N(NC(=O)Nc1ccc(OC(F)(F)F)cc1)C(Cc1ccc(C#N)cc1)c1cccc(Cl)c1 (centres unmarked) :: A (100)
N#Cc1ccc(CC(=NNC(=O)Nc2ccc(OC(F)(F)F)cc2)c2cccc(F)c2)cc1 :: A (100)
N#Cc1ccc(CC(=NNC(=O)Nc2ccc(SC(F)(F)F)cc2)c2cccc(Br)c2)cc1 :: C (89-80)
N#Cc1ccc(CC(=NNC(=O)Nc2ccc(OC(F)(F)F)cc2)c2cccc(I)c2)cc1 :: A (100)
CC(C(=NNC(=O)Nc1ccc(OC(F)(F)F)cc1)c1ccccc1)c1ccccc1 (centres unmarked) [Compound 51] :: A (100)

Then there is this compound:
Ask: Fill in reported Termite-killing effect for this entry: N#Cc1cccc(CC(NNC(=O)Nc2ccc(OC(F)(F)F)cc2)c2ccccc2)c1 (centres unmarked) [Compound 121]
Result: C (89-80)
